Sourced from the Immune Epitope Database (IEDB)

molecular target: HLA-A*03:01; assay: IEDB peptide-MHC binding, purified MHC/competitive/radioactivity; filed as Kd, often an IC50 or EC50 that approximates it; bounds were set here for any values at or beyond the usual limits of such assays; details: source organism: Vaccinia virus WR
Readout: Kd

For orientation, consider the following solved cases.
| Ordered Residues | Experimental System | Readout | Test Result |
| --- | --- | --- | --- |
| VTSLAIKNY | HLA-A*03:01 | Kd | ≥ 25.1 µM |
| VFYRSGTETK | HLA-A*03:01 | Kd | ≥ 33.8 µM |

Quick one: give measured Kd for KSTELIRRVR
≥ 70.1 µM
